target.system: Recombinant human JARID1B/KDM5B (Homo sapiens, UniProt Q9UGL1)
Construct: purchased Active Motif 31432; host or cells: Sf9 insect cells
Sequence (Q9UGL1 whole entry): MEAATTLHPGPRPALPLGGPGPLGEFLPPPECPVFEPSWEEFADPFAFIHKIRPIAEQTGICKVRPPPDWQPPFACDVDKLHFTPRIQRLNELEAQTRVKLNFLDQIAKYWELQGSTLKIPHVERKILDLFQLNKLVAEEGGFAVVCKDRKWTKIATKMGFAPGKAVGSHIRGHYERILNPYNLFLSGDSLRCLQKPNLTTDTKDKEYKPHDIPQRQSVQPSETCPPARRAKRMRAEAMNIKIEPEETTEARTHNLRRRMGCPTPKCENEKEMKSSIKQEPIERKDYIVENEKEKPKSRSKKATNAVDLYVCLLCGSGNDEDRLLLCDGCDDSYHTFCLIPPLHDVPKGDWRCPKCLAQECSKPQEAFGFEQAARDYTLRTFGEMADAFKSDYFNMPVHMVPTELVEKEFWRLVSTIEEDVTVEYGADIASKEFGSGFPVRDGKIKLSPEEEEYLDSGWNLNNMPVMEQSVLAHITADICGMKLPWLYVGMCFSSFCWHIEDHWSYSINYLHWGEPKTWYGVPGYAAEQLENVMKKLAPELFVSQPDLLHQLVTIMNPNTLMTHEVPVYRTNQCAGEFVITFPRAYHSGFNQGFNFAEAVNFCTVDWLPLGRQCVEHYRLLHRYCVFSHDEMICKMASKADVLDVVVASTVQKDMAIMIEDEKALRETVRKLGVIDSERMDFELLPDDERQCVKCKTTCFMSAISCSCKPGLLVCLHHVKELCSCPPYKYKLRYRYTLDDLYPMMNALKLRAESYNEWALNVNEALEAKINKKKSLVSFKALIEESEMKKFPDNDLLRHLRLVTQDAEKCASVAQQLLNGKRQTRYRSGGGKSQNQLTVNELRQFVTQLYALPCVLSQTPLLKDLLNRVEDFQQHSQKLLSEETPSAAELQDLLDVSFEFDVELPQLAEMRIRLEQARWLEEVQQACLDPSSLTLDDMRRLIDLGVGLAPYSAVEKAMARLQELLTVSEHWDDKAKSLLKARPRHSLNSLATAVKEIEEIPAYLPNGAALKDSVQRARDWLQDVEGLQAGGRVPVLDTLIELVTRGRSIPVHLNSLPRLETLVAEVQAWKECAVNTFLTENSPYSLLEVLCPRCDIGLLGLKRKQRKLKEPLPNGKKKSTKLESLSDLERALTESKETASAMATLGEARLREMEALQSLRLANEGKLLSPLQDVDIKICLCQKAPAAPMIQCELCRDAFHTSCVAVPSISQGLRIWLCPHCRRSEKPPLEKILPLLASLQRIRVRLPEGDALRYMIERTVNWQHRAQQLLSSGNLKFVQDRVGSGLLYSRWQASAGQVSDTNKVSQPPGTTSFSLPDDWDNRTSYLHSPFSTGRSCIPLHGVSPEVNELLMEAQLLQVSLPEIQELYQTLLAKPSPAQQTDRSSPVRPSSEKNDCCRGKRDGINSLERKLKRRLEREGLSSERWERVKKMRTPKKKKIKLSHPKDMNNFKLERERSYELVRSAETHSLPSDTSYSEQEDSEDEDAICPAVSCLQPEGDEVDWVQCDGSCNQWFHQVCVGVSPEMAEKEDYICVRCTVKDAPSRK
test.name: LANCE Ultra TR-FRET JARID1B (KDM5B) demethylase inhibition assay
Type: biochemical
run.parameters: 0.1 uM of test-compounds, FLAG-JARID1B, 500 nM biotinylated H3K4me3 peptide substrate, 30 min at room temperature
# inhibition at 0.1 µM per record follows

Examples with their reported inhibition at 0.1 µM follow.
{"columns": ["molecule", "inhibition at 0.1 µM"],
 "data": [
  ["CN1CCN(CCNc2nc(-c3nccc4c(=O)[nH]c(COc5ccc(F)c(Cl)c5)nc34)cs2)CC1", "≥ 50%"],
  ["Nc1nn(-c2nccc3c(=O)[nH]cnc23)cc1-c1ccc(CN2CCCC2)cc1", "20 to 50%"],
  ["CN(C)CCNc1nc(-c2nccc3c(=O)[nH]c(Cc4ccccc4)nc23)cs1", "20 to 50%"],
  ["CCOC(=O)c1nc(-c2nccc3c(=O)[nH]cnc23)cs1", "< 20%"],
  ["O=c1[nH]cnc2c(-n3cc(-c4cccc(OCc5ccccc5)c4)cn3)nccc12", "< 20%"]
]}

Fill in: inhibition at 0.1 µM of Cc1nc2c(-c3csc(NCCO)n3)nccc2c(=O)[nH]1 is ___
< 20%

Given O=c1[nH]c(COc2ccc(F)c(Cl)c2)nc2c(-c3csc(NC4CCN(Cc5ccccc5)C4)n3)nccc12 (stereo not drawn) , state its recorded inhibition at 0.1 µM.
20 to 50%

Field request: inhibition at 0.1 µM | item: CN1CCN(c2ccc(-c3cn(-c4nccc5c(=O)[nH]cnc45)nc3N)cc2)CC1
20 to 50%

inhibition at 0.1 µM lookup needed for Cc1cccc(-c2cnn(-c3nccc4c(=O)[nH]cnc34)c2)c1 , thanks.
< 20%

====

target.system: Recombinant human JARID1B/KDM5B (Homo sapiens, UniProt Q9UGL1)
Construct: purchased Active Motif 31432; host or cells: Sf9 insect cells
test.name: LANCE Ultra TR-FRET JARID1B (KDM5B) demethylase inhibition assay
Type: biochemical
run.parameters: 0.1 uM of test-compounds, FLAG-JARID1B, 500 nM biotinylated H3K4me3 peptide substrate, 30 min at room temperature
Quick reference for inhibition at 0.1 µM among some compounds

Guide cases for inhibition at 0.1 µM, answers given:
{"columns": ["sample.smiles", "target.system", "readout", "observed.value"],
 "data": [
  ["O=c1[nH]cnc2c(-n3cc(-c4ccccc4CO)cn3)nccc12", "Recombinant human JARID1B/KDM5B (Homo sapiens, UniProt Q9UGL1)", "inhibition at 0.1 µM", "< 20%"],
  ["O=c1[nH]c(COc2ccc(F)c(Cl)c2)nc2c(-c3csc(NCC4CCNCC4)n3)nccc12", "Recombinant human JARID1B/KDM5B (Homo sapiens, UniProt Q9UGL1)", "inhibition at 0.1 µM", "20 to 50%"],
  ["COCCN1CCC(CNc2nc(-c3nccc4c(=O)[nH]c(COCc5ccccc5)nc34)cs2)CC1", "Recombinant human JARID1B/KDM5B (Homo sapiens, UniProt Q9UGL1)", "inhibition at 0.1 µM", "< 20%"],
  ["Cn1cnc(-c2nccc3c(=O)[nH]c(COc4ccc(F)c(Cl)c4)nc23)c1", "Recombinant human JARID1B/KDM5B (Homo sapiens, UniProt Q9UGL1)", "inhibition at 0.1 µM", "20 to 50%"],
  ["CN1CCN(Cc2cccc(-c3cn(-c4nccc5c(=O)[nH]cnc45)nc3N)c2)CC1", "Recombinant human JARID1B/KDM5B (Homo sapiens, UniProt Q9UGL1)", "inhibition at 0.1 µM", "< 20%"]
]}

What value of measured inhibition at 0.1 µM is listed for O=c1[nH]cnc2c(-n3cc(-c4cccc(CO)c4)cn3)nccc12 ?
< 20%

What measured inhibition at 0.1 µM goes with CN1CCN(CCn2cc(-c3cn(-c4nccc5c(=O)[nH]cnc45)nc3N)cn2)CC1 ?
20 to 50%

Record request: inhibition at 0.1 µM value, item O=c1[nH]c(COc2ccc(F)cc2)nc2c(-c3csc(NC4CCN(Cc5ccccc5)CC4)n3)nccc12
< 20%

What value of inhibition at 0.1 µM has been recorded for this entry: Nc1nn(-c2nccc3c(=O)[nH]cnc23)cc1-c1cccc(CO)c1
20 to 50%

Returns the measured inhibition at 0.1 µM for the input compound. Input: CCC[C@H](CO)Nc1nc(-c2nccc3c(=O)[nH]c(COc4ccc(F)c(Cl)c4)nc23)cs1
20 to 50%
